Please respond with reported competition rate for every item in the list.
# system tested: T1, human MSLN-FL-his protein (human, UniProt Q13421 296-580)
# T1 construct: made in HEK293E cells, purified on nickel column; also called hMSLN-FL-his; human MSLN full-length protein; not shown: His tag
# T1 sequence (Q13421 other isoform, or with tags, fused parts or gaps): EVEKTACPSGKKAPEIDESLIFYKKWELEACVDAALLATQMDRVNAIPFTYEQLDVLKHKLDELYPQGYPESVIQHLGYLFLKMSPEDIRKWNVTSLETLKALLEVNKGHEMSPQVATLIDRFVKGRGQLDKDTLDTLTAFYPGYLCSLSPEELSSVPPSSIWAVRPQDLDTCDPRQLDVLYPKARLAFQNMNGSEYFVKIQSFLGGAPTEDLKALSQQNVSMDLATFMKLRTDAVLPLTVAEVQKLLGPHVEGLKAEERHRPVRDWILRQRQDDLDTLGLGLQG
# test summary: competitive ELISA; row F8-8.22; note: test concentration or dose not given here
Answer in %, number only, no unit symbol.

Sure, the documented competition rate for S009-F8-32.3 (antibody, human IgG1, kappa, V domains shown, human-murine chimeric antibody, human IgG1/kappa constant regions) VH: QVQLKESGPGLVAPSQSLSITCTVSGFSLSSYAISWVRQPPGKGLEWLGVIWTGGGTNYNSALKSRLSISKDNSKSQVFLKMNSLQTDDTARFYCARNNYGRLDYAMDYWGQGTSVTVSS VL: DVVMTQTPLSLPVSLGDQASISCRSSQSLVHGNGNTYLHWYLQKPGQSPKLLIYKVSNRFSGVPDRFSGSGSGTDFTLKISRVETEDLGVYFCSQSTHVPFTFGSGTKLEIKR is 94.4

Value of competition rate reported for the binder S009-F8-29.1 (antibody, human IgG1, kappa, V domains shown, human-murine chimeric antibody, human IgG1/kappa constant regions) VH: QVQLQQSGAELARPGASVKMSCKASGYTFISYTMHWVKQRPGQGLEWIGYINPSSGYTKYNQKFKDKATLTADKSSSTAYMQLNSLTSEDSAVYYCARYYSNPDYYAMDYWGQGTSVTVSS VL: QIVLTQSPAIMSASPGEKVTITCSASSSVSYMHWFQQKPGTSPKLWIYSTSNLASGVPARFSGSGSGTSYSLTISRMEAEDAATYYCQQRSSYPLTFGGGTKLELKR is 88.4

Reported competition rate ( S009-F8-33.12 (antibody, human IgG1, kappa, V domains shown, human-murine chimeric antibody, human IgG1/kappa constant regions) VH: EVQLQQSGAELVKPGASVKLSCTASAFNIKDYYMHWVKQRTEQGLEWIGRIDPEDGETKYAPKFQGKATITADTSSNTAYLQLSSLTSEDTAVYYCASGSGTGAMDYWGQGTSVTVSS VL: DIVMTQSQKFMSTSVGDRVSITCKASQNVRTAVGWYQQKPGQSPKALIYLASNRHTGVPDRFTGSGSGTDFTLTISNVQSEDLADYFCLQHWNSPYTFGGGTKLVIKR ) = 96
